assay.target: Glutamate NMDA receptor; GRIN1/GRIN2B (Homo sapiens, UniProt Q05586+Q13224)
Sequence (Q13224 whole entry, other chains not shown): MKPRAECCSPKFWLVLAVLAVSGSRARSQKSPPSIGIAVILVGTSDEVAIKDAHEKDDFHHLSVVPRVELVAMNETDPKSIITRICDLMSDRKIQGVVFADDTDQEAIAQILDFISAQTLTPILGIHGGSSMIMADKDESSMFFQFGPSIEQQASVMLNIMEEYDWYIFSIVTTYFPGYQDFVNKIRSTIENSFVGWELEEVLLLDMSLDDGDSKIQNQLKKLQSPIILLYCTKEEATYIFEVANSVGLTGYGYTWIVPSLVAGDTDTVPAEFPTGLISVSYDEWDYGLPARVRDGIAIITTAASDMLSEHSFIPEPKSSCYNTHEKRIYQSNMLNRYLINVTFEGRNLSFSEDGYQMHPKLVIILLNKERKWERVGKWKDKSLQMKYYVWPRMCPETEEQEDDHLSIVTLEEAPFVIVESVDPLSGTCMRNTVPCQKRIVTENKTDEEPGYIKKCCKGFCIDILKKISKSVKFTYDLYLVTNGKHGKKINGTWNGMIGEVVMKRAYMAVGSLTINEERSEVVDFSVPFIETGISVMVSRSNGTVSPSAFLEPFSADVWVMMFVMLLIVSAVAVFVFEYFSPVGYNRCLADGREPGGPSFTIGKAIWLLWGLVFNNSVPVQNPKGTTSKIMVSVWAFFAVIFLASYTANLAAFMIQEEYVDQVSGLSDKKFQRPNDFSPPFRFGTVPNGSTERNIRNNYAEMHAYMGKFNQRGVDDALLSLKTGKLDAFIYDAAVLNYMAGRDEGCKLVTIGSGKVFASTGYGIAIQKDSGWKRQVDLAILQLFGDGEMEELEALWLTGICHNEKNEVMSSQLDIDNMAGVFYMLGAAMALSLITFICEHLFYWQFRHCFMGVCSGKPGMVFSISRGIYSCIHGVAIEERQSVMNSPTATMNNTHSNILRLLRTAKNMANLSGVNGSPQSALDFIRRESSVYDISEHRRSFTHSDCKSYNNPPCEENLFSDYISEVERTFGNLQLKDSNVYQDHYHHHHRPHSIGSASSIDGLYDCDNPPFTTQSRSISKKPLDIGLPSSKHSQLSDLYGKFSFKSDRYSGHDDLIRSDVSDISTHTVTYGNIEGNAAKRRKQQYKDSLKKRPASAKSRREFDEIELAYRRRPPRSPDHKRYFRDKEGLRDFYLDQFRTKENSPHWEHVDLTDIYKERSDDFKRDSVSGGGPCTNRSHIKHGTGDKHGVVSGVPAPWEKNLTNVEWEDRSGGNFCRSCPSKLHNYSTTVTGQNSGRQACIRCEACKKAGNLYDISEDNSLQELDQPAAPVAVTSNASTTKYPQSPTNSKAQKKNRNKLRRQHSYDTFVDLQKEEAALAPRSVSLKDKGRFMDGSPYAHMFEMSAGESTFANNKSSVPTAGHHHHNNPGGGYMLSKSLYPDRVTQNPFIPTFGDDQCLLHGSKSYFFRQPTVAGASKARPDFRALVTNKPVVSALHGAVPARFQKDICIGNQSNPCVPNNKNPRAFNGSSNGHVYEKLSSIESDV
assay.text: In vitro inhibition of Glu/Gly stimulated [Ca2+] influx in LtK-cells expressing the hNR1a/NR2B receptor
pIC50: −log10 of the molar value.
pIC50 below 8 gives 0.0; pIC50 at or above it gives 1.0.

Before answering, review these 6 worked examples.
>>> class_assignment("O=[N+]([O-])c1ccc2[nH]c(Cc3ccc(Oc4ccccc4)cc3)nc2c1")
0.0
>>> class_assignment("O=S(=O)(Nc1ccc2[nH]c(Cc3ccc(Oc4ccccc4)cc3)nc2c1)c1ccccc1")
0.0
>>> class_assignment("CC(C)S(=O)(=O)Nc1ccc2[nH]c(CN3CCC(Cc4ccccc4)CC3)nc2c1")
0.0
>>> class_assignment("c1ccc(Oc2ccc(Cc3nc4ccccc4[nH]3)cc2)cc1")
0.0
>>> class_assignment("CS(=O)(=O)Nc1ccc2nc(CN3CCC(Cc4ccccc4)CC3)[nH]c2c1")
1.0
>>> class_assignment("c1ccc(CC2CCN(Cc3nc4ccccc4[nH]3)CC2)cc1")
0.0

# input for lookup
Problem: pIC50 >= 8 for CCS(=O)(=O)Nc1ccc2[nH]c(Cc3ccc(Oc4ccccc4)cc3)nc2c1 ?
Result: 1.0
